tested on: GH3-TRE-Luc cell line; conditions: read-out: AC50 (uM) modified / 1000; Tox21_110001=Tox21_113204; viability, 1 nM T3 present, 24 h
Structures can show the parent of a compound that is named as a salt.
Quantity: CC50 (µM)
Answers are plain numbers, in µM.

Q) Which measured CC50 value corresponds to CCN(CC)C(=O)c1cc(S(=O)(=O)Cc2ccccc2)c(N2CCC(c3ccccc3)CC2)cc1N(CC)CCN(C)C [HMR1171 trifluoroacetate (1:1)] ?
A) 3.38

----------
tested on: GH3-TRE-Luc cell line; conditions: read-out: AC50 (uM) modified / 1000; Tox21_110001=Tox21_112974; viability, 1 nM T3 present, 24 h
Quantity: CC50 (µM)
Numbers only, in µM.

Q) Given the entry `N#C/C(=C1/SC[C@@H](c2ccc(Cl)cc2Cl)S1)n1ccnc1` , report its measured CC50.
A) 40.6

----------
assay: in vitro; conditions: rat, gh3-tre-luc cells, AC50 (uM) modified / 1000, Tox21_110001=Tox21_201511; viability, 1 nM T3 present, 24 h
Quantity: CC50 at 24 h

Q) # get_value(readout='CC50 at 24 h', item= O=P(Oc1ccccc1)(Oc1ccccc1)Oc1ccccc1 [Triphenyl phosphate] )
A) > 90 µM

----------
test: in vitro; details: rat, gh3-tre-luc cells, AC50 (uM) modified / 1000, Tox21_110001=Tox21_202023; viability, 1 nM T3 present, 24 h
Quantity: CC50 at 24 h

Q) Find the recorded CC50 at 24 h belonging to `ClCC(Cl)CCl` and report it.
A) > 90 µM

----------
experiment: in vitro; settings: rat, gh3-tre-luc cells, AC50 (uM) modified / 1000, Tox21_110001=Tox21_201783; viability, 1 nM T3 present, 24 h
Quantity: CC50 at 24 h

Q) Quick check: CC50 at 24 h of C/C=C/c1ccc2c(c1)OCO2 [Isosafrole] ?
A) > 90 µM

----------
tested on: GH3-TRE-Luc cell line; conditions: read-out: AC50 (uM) modified / 1000; Tox21_110001=Tox21_111498; viability, 1 nM T3 present, 24 h
Where a name gives a salt, the structure may show the parent alone.
Quantity: CC50 (µM)
Numbers only, in µM.

Q) Give the reported CC50 for CC[C@]1(O)C[C@@H]2CN(CCc3c([nH]c4ccccc34)[C@@](C(=O)OC)(c3cc4c(cc3OC)N(C)[C@H]3[C@@](O)(C(=O)OC)[C@H](OC(C)=O)[C@]5(CC)C=CCN6CC[C@]43[C@@H]65)C2)C1 [Vinblastine sulfate] (system: GH3-TRE-Luc cell line).
A) 0.185

----------
assay: in vitro; settings: rat, gh3-tre-luc cells, AC50 (uM) modified / 1000, Tox21_110001=Tox21_201790; viability, 1 nM T3 present, 24 h
Quantity: CC50 at 24 h

Q) # input compound: `CCCCCCCCCCCCCl` ; wanted: its CC50 at 24 h
A) > 90 µM

----------
assay: in vitro; details: rat, gh3-tre-luc cells, AC50 (uM) modified / 1000
Structures can show the parent of a compound that is named as a salt.
Quantity: CC50 at 24 h

INSERT INTO measurements (compound, quantity, result) VALUES
  ('C(CCOCC1CO1)COCC1CO1 (stereo not shown) [1,4-Butanediol diglycidyl ether]', 'CC50 at 24 h', '> 90 µM'),
  ('Nc1cc([N+](=O)[O-])ccc1O [2-Amino-4-nitrophenol]', 'CC50 at 24 h', '62.3 µM'),
  ('O=C1OC(c2ccc(O)c(S(=O)(=O)O)c2)(c2ccc(O)c(S(=O)(=O)O)c2)c2c(Br)c(Br)c(Br)c(Br)c21 [Sulfobromophthalein]', 'CC50 at 24 h', '> 50 µM'),
  ('Cc1cccn2c(=O)c(-c3nnn[nH]3)cnc12 [Pemirolast potassium]', 'CC50 at 24 h', '> 50 µM'),
  ('Cc1ccc(Br)cc1 [4-Bromotoluene]', 'CC50 at 24 h', '> 90 µM');

# per-item lookup of CC50 at 24 h; items listed below
1. O=[N+]([O-])c1ccc(F)cc1F [2,4-Difluoronitrobenzene]
2. NS(=O)(=O)c1cc2c(cc1Cl)NC(CC1CCCC1)NS2(=O)=O (stereo not shown) [Cyclopenthiazide]

A)
1: > 90 µM; 2: > 20 µM

Hey, can you go through the list below and give me CC50 at 24 h for every item?
1. NCCS [Cysteamine hydrochloride]
2. O=C(OCC1(COC(=O)c2cccnc2)CCCC(COC(=O)c2cccnc2)(COC(=O)c2cccnc2)C1O)c1cccnc1 [Nicomolol]

A)
["> 50 µM", "> 50 µM"]

For every item below, please supply its CC50 at 24 h.
1. Cc1c(Cl)cccc1[N+](=O)[O-] [1-Chloro-2-methyl-3-nitrobenzene]
2. COc1cc(C=O)cc2c1[C@H](COC(N)=O)[C@]1(OC(C)=O)ON2C[C@H]2[C@@H]1N2C(C)=O [PharmaGSID_48166]
3. CCn1cc(C(=O)O)c(=O)c2cc(F)c(N3CCNCC3)nc21 [Enoxacin]
4. N[C@@H](Cc1c[nH]cn1)C(=O)O [L-Histidine hydrochloride]
5. CN(C)C(=O)C1(N2CCCCC2)CCN(CC[C@@]2(c3ccc(Cl)c(Cl)c3)CN(C(=O)c3ccccc3)CCO2)CC1 [SSR 241586 HCl]
6. CC(C)(c1ccccc1)c1ccccc1 [2,2-Diphenylpropane]

A)
> 90 µM
1.23 µM
> 20 µM
> 50 µM
4.07 µM
> 90 µM

For each listed entry, give its CC50 at 24 h.
1. c1ccc(-c2ccc(-c3ccccc3)cc2)cc1 [1,1':4',1''-Terphenyl]
2. C=CCCCCCCCCCCCCCC [1-Hexadecene]
3. C=CC(C)CCCC(C)(C)O (stereo not shown) [1,1,5-Trimethyl-6-heptenol]
4. O=C(NO)c1ccccc1 [N-Hydroxybenzamide]
5. O=[N+]([O-])c1ccc(O)cc1C(F)(F)F [3-Trifluoromethyl-4-nitrophenol]
6. C#C[C@]1(O)CC[C@H]2[C@@H]3CCC4=C(CCC(=O)C4)[C@H]3CC[C@@]21C [Norethynodrel]
7. O=NN1CCCCCCC1 [Nitrosoheptamethyleneimine]

A)
> 20 µM
> 20 µM
> 90 µM
> 90 µM
41.4 µM
> 20 µM
> 90 µM
